target: BSA-glutathione (bovine) (UniProt P02769); assay: ELISA, culture supernatant on BSA-GSH plates without mercury
measurement type: absorbance at 405 nm (absorbance at 405 nm)
Hey, just send me the number, nothing else.

Consider the worked cases shown below.
| binder | quantitative readout |
| --- | --- |
| monoclonal antibody 4A10 (antibody, V domains shown) VH: EVQLQQSGPELVKPGALVKISCKASGYTFTSYDINWVKQRPGQGLEWIGWIYPGDGSTKYNEKFKGKATLTADKSSSTAYMQLSSLTSENSAVYFCARCGYAMDYWGQGTSVTVSS VL: DVLMTQTPLSLPVSLGDQASISCRSSQSIVHSNGNTYLEWYLQKPGQSPKLLIYKVSNRFSGVPDRFSGSGSGTDFTLKISRAEAEDLGVYYCFQGSHVRYTFGGGTKLEIK | 0.078 |
| monoclonal antibody 2D5 (antibody, V domains shown) VH: SGGGSVKPGGSLKLSCAASGFTFSSCAMSWVRQTPEKRLEWVATISSGGSYTYYPDSVKGRFTIFRHNAENTLYLQMSSLRSEDTAIYYCVRQDGYYGNYVWFAYWGQGTLVTVSA VL: ELVMTQSPASLSASVGETVTITCRASENIYGYLAWYQQKQGKSPLPRVYNAKTLAEDVSSRVSGSGSGTQFSLKIRTSQPEDFGTYYCQHHYGTPYTFGGGTKLEIK | 0.09 |

Attention now shifts to the item below.
stdin: Please report the recorded absorbance at 405 nm (absorbance at 405 nm) for monoclonal antibody 1C11 (antibody, V domains shown) VH: SGAELVKPGASVKLSCKTSGYTVTSYWMGWVKQRPGQGLEWIGNIYPDSGTTNYNEKFKNKATLTVDTFSSTVYMQLSSLTSEDSAVYYCARGVYSYYSYDVYAMDYWGQGTSVTVSS VL: DLVLTQSPPSLAVSLGQRSTISCRSSQSIVHSNGNTYLHWYQQNPGQPPKLLIKYASNLESGVPARFSGSGSGTDFTLNIHPAEVEDSATYFCQHSWEIPPTFGGGTKLEIK .
stdout: 0.094
